// reported IC50 for each item listed
# Tested Target: Bromodomain-containing protein 4 (Homo sapiens, UniProt O60885)
# Experiment Summary: Inhibition of BRD4-BD2 (unknown origin) by fluorescence polarization assay
State just the number; it will be interpreted in µM.

## Input Param readout = IC50; param system = Bromodomain-containing protein 4 (Homo sapiens, UniProt O60885); param query = CC(=O)OC[C@]12CC[C@H]3[C@@H](C[C@H]4O[C@]45CC=CC(=O)[C@]35C)[C@]1(O)[C@@H](OC(C)=O)C[C@@]2(O)[C@@](C)(O)[C@H]1CC(C)=C(C)C(=O)O1 ; response: value
## Output 14.8

====

# Tested Target: Bromodomain-containing protein 3 (Homo sapiens, UniProt Q15059)
# Sequence (Q15059 whole entry): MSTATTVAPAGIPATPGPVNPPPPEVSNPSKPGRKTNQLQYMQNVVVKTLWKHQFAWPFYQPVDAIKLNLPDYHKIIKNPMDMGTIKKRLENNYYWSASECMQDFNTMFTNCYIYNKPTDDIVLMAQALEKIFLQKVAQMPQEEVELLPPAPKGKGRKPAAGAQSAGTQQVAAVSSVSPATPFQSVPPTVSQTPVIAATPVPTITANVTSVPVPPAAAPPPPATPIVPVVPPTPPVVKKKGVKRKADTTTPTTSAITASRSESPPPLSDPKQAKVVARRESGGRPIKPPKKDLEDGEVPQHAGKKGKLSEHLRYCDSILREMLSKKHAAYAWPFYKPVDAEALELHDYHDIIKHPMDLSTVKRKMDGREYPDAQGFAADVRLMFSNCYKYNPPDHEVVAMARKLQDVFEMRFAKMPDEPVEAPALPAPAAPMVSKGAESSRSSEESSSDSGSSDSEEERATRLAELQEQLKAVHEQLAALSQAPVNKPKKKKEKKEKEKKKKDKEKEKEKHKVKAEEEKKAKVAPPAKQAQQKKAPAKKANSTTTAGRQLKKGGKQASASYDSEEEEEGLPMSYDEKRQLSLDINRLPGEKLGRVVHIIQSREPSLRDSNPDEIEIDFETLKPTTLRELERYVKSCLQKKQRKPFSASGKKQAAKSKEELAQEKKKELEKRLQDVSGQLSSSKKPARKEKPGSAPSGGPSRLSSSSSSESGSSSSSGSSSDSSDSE
# Experiment Summary: Inhibition of BRD3-BD1 (unknown origin) by fluorescence polarization assay
Endpoint Label: IC50

# count of solved cases: 5
## Input What value of IC50 has been recorded for this entry: CC(=O)OC[C@]12CC[C@H]3[C@@H](C[C@H]4O[C@]45CCCC(=O)[C@]35C)[C@]1(O)CC[C@@]2(O)[C@@](C)(O)[C@H]1CC(C)=C(C)C(=O)O1
## Output 235 nM

## Input Now this one: CC(=O)OC[C@]12CC[C@H]3[C@@H](C[C@H]4O[C@]45CC=CC(=O)[C@]35C)[C@]1(O)CC[C@@]2(O)[C@@](C)(O)[C@H]1C[C@]2(C)O[C@]2(C)C(=O)O1
## Output 2360 nM

## Input Now this one: CC(=O)OC[C@]12CC[C@H]3[C@@H](C[C@H]4O[C@]45CC=CC(=O)[C@]35C)[C@]1(O)CC[C@@]2(O)[C@@](C)(O)[C@H]1C[C@@H](C)[C@@H](C)C(=O)O1
## Output > 20000 nM

## Input Now this one: CC1=C(C)C(=O)O[C@@H]([C@](C)(O)[C@]2(O)CC[C@@]3(O)[C@@H]4C[C@H]5O[C@]56CC=CC(=O)[C@]6(C)[C@H]4CC[C@]23C)C1 [WITHANOLIDE E]
## Output 2950 nM

## Input Now this one: CC(=O)OC[C@]12CC[C@H]3[C@@H](C[C@H]4O[C@]45CC=CC(=O)[C@]35C)[C@]1(O)[C@@H](OC(C)=O)C[C@@]2(O)[C@@](C)(O)[C@H]1CC(C)=C(C)C(=O)O1
## Output 210 nM

Further cases:
## Input What value of IC50 has been recorded for this entry: CC(=O)OC[C@]12CC[C@H]3[C@@H](C[C@@H]4O[C@@]45CC=CC(=O)[C@]35C)[C@]1(O)CC[C@@]2(O)[C@@](C)(O)[C@H]1CC(C)=C(C)C(=O)O1
## Output 89.7 nM

## Input Now this one: CC(=O)OC[C@]12CC[C@H]3[C@@H](CC=C4CC=CC(=O)[C@@]43C)[C@]1(O)CC[C@@]2(O)[C@@](C)(O)[C@H]1CC(C)=C(C)C(=O)O1
## Output 18 nM

## Input Now this one: CC(=O)OC[C@]12CC[C@H]3[C@@H](C[C@H]4O[C@]45CC=CC(=O)[C@]35C)[C@]1(O)CC[C@@]2(O)[C@@](C)(O)[C@H]1C[C@H](C)[C@H](C)C(=O)O1
## Output > 20000 nM

## Input Now this one: CC1=C(CO)C(=O)O[C@@H]([C@@H](C)[C@H]2CC[C@H]3[C@@H]4C[C@H]5O[C@]56[C@@H](O)C=CC(=O)[C@]6(C)[C@H]4CC[C@]23C)C1
## Output > 20000 nM

## Input Now this one: CC(=O)OC[C@]12CC[C@H]3[C@@H](CC=C4C=CCC(=O)[C@@]43C)[C@]1(O)CC[C@@]2(O)[C@@](C)(O)[C@H]1CC(C)=C(C)C(=O)O1
## Output 262 nM

## Input Now this one: CC1=C(CO)C[C@H]([C@](C)(O)[C@]2(O)CC[C@@]3(O)[C@@H]4C[C@H]5O[C@]56CC=CC(=O)[C@]6(C)[C@H]4CC[C@]23C)OC1=O
## Output 736 nM

## Input Now this one: CC(=O)OC[C@]12CC[C@H]3[C@@H](C[C@H]4O[C@]45CCCC(=O)[C@]35C)[C@]1(O)CC[C@@]2(O)[C@@](C)(O)[C@H]1C[C@@H](C)[C@@H](C)C(=O)O1
## Output > 20000 nM
